assayed_system: T1, human CD33, full length, on cells (human, UniProt P20138 18-364)
T1 construct: NIH-3T3 cells stably overexpressing full-length human CD33, or AML lines U937 and Set2 with endogenous CD33; the cell line is named under assay; also called 3T3-huCD33; 3T3-CD33
T1 sequence (P20138 18-364): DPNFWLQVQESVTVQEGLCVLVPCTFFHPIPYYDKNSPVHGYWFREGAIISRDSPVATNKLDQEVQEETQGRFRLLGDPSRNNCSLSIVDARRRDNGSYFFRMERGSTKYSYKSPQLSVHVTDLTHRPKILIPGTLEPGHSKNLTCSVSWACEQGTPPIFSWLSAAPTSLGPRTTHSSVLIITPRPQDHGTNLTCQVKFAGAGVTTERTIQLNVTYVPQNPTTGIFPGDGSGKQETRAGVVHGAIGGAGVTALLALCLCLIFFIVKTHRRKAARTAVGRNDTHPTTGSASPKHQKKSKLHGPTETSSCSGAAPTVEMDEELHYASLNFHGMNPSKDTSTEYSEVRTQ
procedure_details: flow cytometry, purified mAb, Set2 cells

{"columns": ["binder", "EC50 (nM)"],
 "data": [
  ["4-B2 (hybridoma antibody) (antibody, V domains shown, AlivaMab mouse hybridoma antibody; also called 4-B2-A) VH: EVHLLESGGGLVQPGGSLRLSCAASGFIFSSNAMSWVRQAPGKGLEWVSAISGYGGNTYYADSVKGRFTISRDNSKNTLYLQMNSLRAEDTAVYYCAKWGTYIVGATGDYWGQGTLVTVSS VL: QSALTQPPSASGSPGQSVTISCTGTSNDVGGYNYVSWYQQHPGKAPKLLIYEVSKRPSGVPDRFSGSQSGNTASLTVSGLQAEDEADYYCSSYAGSNNWVFGGGTKLTVL", 28.5],
  ["1-A20 (antibody, V domains shown, AlivaMab mouse hybridoma antibody; also called 1-A20-A) VH: QVQLQESGPGLVKPSETLSLTCTVSGDSISSYYWSWIRQPAGKGLEWIGRIYTSGNTNYNPSLKSRVTMSVDKSKNQFSLKLRSVTAADTAVYYCARDGDNRDSDAFDIWGQGTMVTVSS VL: SPGTLSLSPGERATLSCRASQNISSSYLAWCQQKPGQAPRLFIYGTSRRATGIPDRFSGSGSGTDFTLTISRLEPEDFAVYYCQQYGSSPLTFGGGTKVEIK", 0.4],
  ["2-N3 (antibody, V domains shown, AlivaMab mouse hybridoma antibody; also called 2-N3-A) VH: EVQLVQSGADVKKPGESLKISCKGSGFSFTSHWIAWVRQMPGKGLEWMGIIYPGDSDTRYSPSLQGRVTISADKSISTAYLQWSSLKASDTAMYFCARHETGNGYSYGMDVWGQGTTVTVSS VL: DIVMTQSPLSLPVTPGEPASISCRSSQSLLHSNGYNYLDWYLQKPGQSPQLLFSLGSNRASGVPDRFSGSGSGTDFSLKISRVEAEDVGLYYCMQALQPPLTFGGGTKVEIK", 0.466],
  ["1-H19 (antibody, V domains shown, AlivaMab mouse hybridoma antibody; also called 1-H19-A) VH: QVQLQESGPGLVKPSETLSLTCTVSGGSISTYYWSWIRQPAGKGLEWIGRIYTSGNTNYNPSLKSRVTMSVDTSKNQLSLKLRSVTAADTAVYYCARDGDNRNSDAFDIWGQGTMVTVSS VL: QSVLTQPPSVSGAPGQRVTISCTGSSSNIGAGYDVHWYQQLPGTAPKLLIYGNSNRPSGVPDRFSGSKSGTSASLAITGLQAEDEADYYCQSYDRSLSGWVFGGGTKLTVL", 0.4],
  ["1-J19 (hybridoma antibody) (antibody, V domains shown, AlivaMab mouse hybridoma antibody; also called 1-J19-A) VH: QVQLQQSGPGLVKPSQTLSLTCAISGDSVSSNSAAWNWIRQSPSRGLEWLGRTYFRSKWYNVYAVSVKSRITINPDTSKNQFSLQLNSVTPEDTAVYYCASEGGSYYDHWGQGTLVTVSS VL: DIQMTQSPSSVSASVGDRVTITCRASQGISNWLTWYQQKPGKAPKLLIYAASSLQSGVPSRFSGSGSGTDFTLTISSLQPEDFATYYCQQADSFPFTFGPGTKVDIK", 7.93]
]}
